Measured values drawn from patent US5449676A for this set.

- System: tracheal rings
- protocol details: bronchospasmolytic effect on the chain of tracheal rings from guinea pigs in vitro
- Assay type: cell-based
- assay setup: ratio of EC50 values, theophylline vs substance
- Description: The bronchospasmolytic effect of the compounds on the chain of tracheal rings from guinea pigs was tested in vitro as follows: Thus, a complete dose-effect plot for the test substance is obtained over a period of 20 to 30 minutes. The particular relaxation is expressed as a percentage fraction of the maximum relaxation achievable by administration of (-)isoprenaline (10^-6 mol/l).
Entries annotated with measured [EC50 ] theophylline/[EC50 ] substance

Data point: CCOc1ccc(-c2ccc(N)nn2)cc1OC(F)F ; [EC50 ] theophylline/[EC50 ] substance = 30.2

So for CCOc1ccc(-c2ccc(N)nn2)cc1OCC(C)C , the logged [EC50 ] theophylline/[EC50 ] substance turned out to be 13.8

Reported [EC50 ] theophylline/[EC50 ] substance for COc1cc(-c2ccc(N)[n+]([O-])n2)ccc1OC(F)F was 302

For this compound ( CCOc1cc(-c2ccc(N)nn2)ccc1OC(F)F ), measured [EC50 ] theophylline/[EC50 ] substance is 16.2

[EC50 ] theophylline/[EC50 ] substance in this record for CC(C)Oc1cc(-c2ccc(N)[n+]([O-])n2)ccc1OC(F)F : 44.7

Entry Nc1ccc(-c2ccc(OC(F)F)c(OC3CCCC3)c2)nn1 , [EC50 ] theophylline/[EC50 ] substance reported as 20.4

response.value for CC(C)COc1cc(-c2ccc(N)[n+]([O-])n2)ccc1OC(F)F (field: [EC50 ] theophylline/[EC50 ] substance) = 44.7

Noted for Nc1ccc(-c2ccc(OC(F)F)c(OC3CCCC3)c2)n[n+]1[O-] : its [EC50 ] theophylline/[EC50 ] substance reads 65.5

Item: Nc1ccc(-c2ccc(OC(F)F)c(OCC3CC3)c2)n[n+]1[O-] | [EC50 ] theophylline/[EC50 ] substance: 135

Entry Nc1ccc(-c2ccc(OC(F)F)c(OCC(F)(F)F)c2)n[n+]1[O-] ; [EC50 ] theophylline/[EC50 ] substance = 380

The value of [EC50 ] theophylline/[EC50 ] substance measured for the compound COc1cc(-c2ccc(N)nn2)ccc1OC(F)F turned out to be 27.6

Reported [EC50 ] theophylline/[EC50 ] substance of CCOc1ccc(-c2ccc(N)[n+]([O-])n2)cc1OC(F)F : 240

* * *

- target under test: PDE III (Homo sapiens)
- Construct: PDE III isolated from human platelets; from tissue; host or cells: human platelets
- Sequence (Q14432 whole entry): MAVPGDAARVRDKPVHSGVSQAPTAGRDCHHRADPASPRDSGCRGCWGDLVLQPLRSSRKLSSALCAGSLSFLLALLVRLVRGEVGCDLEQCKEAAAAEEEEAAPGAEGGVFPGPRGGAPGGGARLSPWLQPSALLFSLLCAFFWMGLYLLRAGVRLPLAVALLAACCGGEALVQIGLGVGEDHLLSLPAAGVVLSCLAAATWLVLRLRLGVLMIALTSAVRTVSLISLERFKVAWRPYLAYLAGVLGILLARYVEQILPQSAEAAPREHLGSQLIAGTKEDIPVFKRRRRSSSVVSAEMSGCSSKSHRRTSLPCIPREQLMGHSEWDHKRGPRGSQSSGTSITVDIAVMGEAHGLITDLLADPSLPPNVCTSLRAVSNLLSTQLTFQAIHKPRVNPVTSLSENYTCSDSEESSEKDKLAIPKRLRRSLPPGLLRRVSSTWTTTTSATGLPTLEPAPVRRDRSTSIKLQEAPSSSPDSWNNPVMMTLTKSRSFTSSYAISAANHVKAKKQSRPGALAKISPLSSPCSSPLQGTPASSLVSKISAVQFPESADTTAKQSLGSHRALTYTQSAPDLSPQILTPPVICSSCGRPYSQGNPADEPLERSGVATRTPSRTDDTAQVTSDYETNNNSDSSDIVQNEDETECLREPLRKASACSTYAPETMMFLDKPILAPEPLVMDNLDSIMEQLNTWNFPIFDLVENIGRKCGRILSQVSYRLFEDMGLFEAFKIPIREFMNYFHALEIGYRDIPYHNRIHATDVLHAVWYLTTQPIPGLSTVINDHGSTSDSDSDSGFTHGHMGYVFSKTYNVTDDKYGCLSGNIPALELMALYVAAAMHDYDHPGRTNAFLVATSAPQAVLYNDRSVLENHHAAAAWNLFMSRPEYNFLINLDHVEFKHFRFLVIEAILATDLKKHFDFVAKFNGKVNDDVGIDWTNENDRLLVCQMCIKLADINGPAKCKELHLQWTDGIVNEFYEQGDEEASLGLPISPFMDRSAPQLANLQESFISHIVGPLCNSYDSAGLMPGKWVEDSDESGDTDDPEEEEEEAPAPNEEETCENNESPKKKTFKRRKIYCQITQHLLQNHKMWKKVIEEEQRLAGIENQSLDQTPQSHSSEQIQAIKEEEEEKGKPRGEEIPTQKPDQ
- protocol details: inhibition of PDE III isolated from human platelets
- Type: biochemical
- assay setup: negative logarithm of IC50; cAMP 0.5 μmol/l; read-out: PDE III hum. platelets -lg[IC50 ] (converted)
value kind: IC50
Give the number first and the unit second.

[
  {
    "compound": "CCOc1ccc(-c2ccc(N)[n+]([O-])n2)cc1OC(F)F [compound 21]",
    "IC50": "44.7 µM"
  },
  {
    "compound": "Nc1ccc(-c2ccc(OC(F)F)c(OCC(F)(F)F)c2)nn1 [compound 16]",
    "IC50": "331 µM"
  },
  {
    "compound": "Nc1ccc(-c2ccc(OC(F)F)c(OCC(F)(F)F)c2)n[n+]1[O-] [compound 25]",
    "IC50": "70.8 µM"
  },
  {
    "compound": "CC(C)COc1cc(-c2ccc(N)[n+]([O-])n2)ccc1OC(F)F [compound 23]",
    "IC50": "126 µM"
  },
  {
    "compound": "CC(C)Oc1cc(-c2ccc(N)[n+]([O-])n2)ccc1OC(F)F [compound 22]",
    "IC50": "12 µM"
  },
  {
    "compound": "COc1ccc(-c2ccc(N)nn2)cc1OCC(C)C [Serial No. 2]",
    "IC50": "209 µM"
  }
]

Sample CCOc1cc(-c2ccc(N)nn2)ccc1OC(F)F [compound 10] ; IC50 observed: 224 µM

Looking up COc1ccc(-c2ccc(N)nn2)cc1OC1CCCCCC1 [Serial No. 8] , I found its IC50 recorded as 77.6 µM

The value of IC50 measured for the compound CCOc1ccc(-c2ccc(N)nn2)cc1OCC(C)C [compound 9] turned out to be 126 µM

// IC50 value for COc1cc(-c2ccc(N)[n+]([O-])n2)ccc1OC(F)F [compound 20] : 14.8 µM
